assay: Plasma protein binding; type: in vitro ADME; settings: pooled plasma, pH 7.4, human, read-out: PPB (fu)
MEASURED METRIC: fraction unbound at 5 h, 1000 nM

Input Cn1nnnc1Cn1nnc2c(N3CC[C@H](O)C3)nc(C(C)(C)C)nc21 [RG7774] . Output fraction unbound at 5 h, 1000 nM: 0.178

----------
MEASURED METRIC: IC50 (µM)
Just the number please, in µM, no unit attached.

Field IC50 (CYP2C9 (Homo sapiens)), entry Cn1nnnc1Cn1nnc2c(N3CC[C@H](O)C3)nc(C(C)(C)C)nc21 : 29

----------
assay: Plasma PK profile in rats; format: in vivo, Wistar rats; conditions: female, Wistar, rat, plasma, IV 10 mg/kg, mean (% CV)
MEASURED METRIC: clearance (mL/min/kg)
Just the number please, in mL/min/kg, no unit attached.

Input Cn1nnnc1Cn1nnc2c(N3CC[C@H](O)C3)nc(C(C)(C)C)nc21 . Output clearance: 2.84

----------
Target: P-gp (Mus musculus, UniProt P21447)
Construct: host or cells: LLC-PK1 (porcine kidney epithelial) cells
Sequence (P21447 whole entry): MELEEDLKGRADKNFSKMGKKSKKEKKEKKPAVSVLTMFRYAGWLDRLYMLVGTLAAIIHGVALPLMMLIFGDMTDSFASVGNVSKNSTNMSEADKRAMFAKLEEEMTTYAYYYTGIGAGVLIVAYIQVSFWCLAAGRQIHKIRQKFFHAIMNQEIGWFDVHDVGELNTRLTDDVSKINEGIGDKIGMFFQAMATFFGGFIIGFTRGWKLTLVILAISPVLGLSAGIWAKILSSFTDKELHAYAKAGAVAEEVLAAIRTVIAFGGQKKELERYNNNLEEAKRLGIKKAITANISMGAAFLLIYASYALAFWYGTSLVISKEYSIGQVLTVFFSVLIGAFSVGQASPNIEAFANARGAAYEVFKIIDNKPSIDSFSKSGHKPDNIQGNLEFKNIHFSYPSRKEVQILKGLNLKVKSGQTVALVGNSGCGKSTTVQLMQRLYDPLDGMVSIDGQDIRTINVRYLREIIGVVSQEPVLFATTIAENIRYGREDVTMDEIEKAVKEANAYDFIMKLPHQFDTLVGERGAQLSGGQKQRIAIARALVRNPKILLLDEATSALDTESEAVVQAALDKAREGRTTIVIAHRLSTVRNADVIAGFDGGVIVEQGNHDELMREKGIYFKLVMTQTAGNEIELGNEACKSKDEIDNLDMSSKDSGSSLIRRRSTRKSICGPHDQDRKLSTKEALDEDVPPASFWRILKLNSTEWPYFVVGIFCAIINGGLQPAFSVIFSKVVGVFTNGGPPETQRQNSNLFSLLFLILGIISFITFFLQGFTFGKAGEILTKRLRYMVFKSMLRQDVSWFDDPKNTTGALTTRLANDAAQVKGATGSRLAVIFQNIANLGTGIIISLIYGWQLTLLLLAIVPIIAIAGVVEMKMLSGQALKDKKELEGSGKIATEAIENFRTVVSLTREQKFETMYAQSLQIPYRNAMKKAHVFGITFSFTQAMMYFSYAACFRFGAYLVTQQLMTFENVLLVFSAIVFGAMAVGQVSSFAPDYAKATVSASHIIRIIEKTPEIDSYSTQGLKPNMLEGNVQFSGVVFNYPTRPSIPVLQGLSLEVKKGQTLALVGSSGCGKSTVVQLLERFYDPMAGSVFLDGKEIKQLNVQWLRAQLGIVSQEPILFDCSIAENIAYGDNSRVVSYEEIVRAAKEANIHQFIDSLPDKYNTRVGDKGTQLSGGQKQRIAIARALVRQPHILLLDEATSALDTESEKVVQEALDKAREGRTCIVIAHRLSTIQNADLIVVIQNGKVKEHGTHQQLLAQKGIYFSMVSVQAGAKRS
Assay: P-gp assay in transfected LLC-PK1 cells
Type: in vitro ADME
Description: The P-gp assay was conducted as previously described. Briefly, transfected porcine kidney epithelial (LLC-PK1) cells expressing human or mouse P-gp were cultured on 96-well semi-permeable filter membrane plates (Millipore, Darmstadt, Germany). […] The effect of P-gp was measured by expressing the efflux ratio of the unidirectional A > B and B > A Papp values. The mean permeability (A > B and B > A Papp) was determined in the absence of P-gp via the addition of the selective P-gp inhibitor, zosuquidar.
MEASURED METRIC: efflux ratio at 3 h
Provide a numeric answer; units are not to be included.

Input Cn1nnnc1Cn1nnc2c(N3CC[C@H](O)C3)nc(C(C)(C)C)nc21 . Output efflux ratio at 3 h: 16.2

----------
test: Microsomal clearance; type: in vitro ADME; conditions: mouse, mouse liver microsomes, pH 7.4
MEASURED METRIC: microsomal CLint at 1 µM (µL/min/mg)
Just the number please, in µL/min/mg, no unit attached.

Input Cn1nnnc1Cn1nnc2c(N3CC[C@H](O)C3)nc(C(C)(C)C)nc21 . Output microsomal CLint at 1 µM: 15

----------
Target: UniProtKB P10632
Sequence (P10632 1-490): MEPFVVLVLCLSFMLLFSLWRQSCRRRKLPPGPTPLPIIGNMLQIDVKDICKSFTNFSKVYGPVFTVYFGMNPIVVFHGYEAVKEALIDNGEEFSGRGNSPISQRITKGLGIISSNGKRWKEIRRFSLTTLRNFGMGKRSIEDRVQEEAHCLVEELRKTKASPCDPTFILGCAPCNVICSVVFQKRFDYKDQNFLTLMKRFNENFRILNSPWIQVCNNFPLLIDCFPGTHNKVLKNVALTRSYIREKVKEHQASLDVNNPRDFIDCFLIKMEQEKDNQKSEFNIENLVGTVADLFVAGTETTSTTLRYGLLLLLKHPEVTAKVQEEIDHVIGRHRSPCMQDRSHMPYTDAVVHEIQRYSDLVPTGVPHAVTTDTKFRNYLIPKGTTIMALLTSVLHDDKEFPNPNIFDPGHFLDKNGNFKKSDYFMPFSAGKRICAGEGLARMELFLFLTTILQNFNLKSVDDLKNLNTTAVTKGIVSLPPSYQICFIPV
pIC50: −log10 of the molar value.
MEASURED METRIC: pIC50

Field pIC50 (UniProtKB P10632), entry Cn1nnnc1Cn1nnc2c(N3CC[C@H](O)C3)nc(C(C)(C)C)nc21 [RG7774] : < 4.30

----------
assay: Plasma PK profile in rats; format: in vivo, Wistar rats; settings: female, Wistar, rat, plasma, IV 10 mg/kg, mean (% CV)
MEASURED METRIC: half-life (h)
Just the number please, in h, no unit attached.

Input Cn1nnnc1Cn1nnc2c(N3CC[C@H](O)C3)nc(C(C)(C)C)nc21 . Output half-life: 2.54

----------
molecular target: endogenous CB2R in human Jurkat cells (Homo sapiens, UniProt P34972); construct: endogenous CB2R in human Jurkat cells; endogenous in cells; test: Competition binding, [^3H]-RO6753361, Jurkat cell membranes
MEASURED METRIC: Ki (µM)
Just the number please, in µM, no unit attached.

Input Cn1nnnc1Cn1nnc2c(N3CC[C@H](O)C3)nc(C(C)(C)C)nc21 . Output Ki: 0.0319

----------
assay: Plasma PK profile in rats; format: in vivo, Wistar rats; conditions: female, Wistar, rat, plasma, PO 30 mg/kg, mean (% CV)
MEASURED METRIC: Tmax (h)
Just the number please, in h, no unit attached.

Input Cn1nnnc1Cn1nnc2c(N3CC[C@H](O)C3)nc(C(C)(C)C)nc21 . Output Tmax: 1.25

----------
biological target: endogenous CB2R (Homo sapiens); construct: endogenous CB2R in human Jurkat cells; endogenous in cells; experiment: pERK assay in Jurkat cells
Sequence (P34972 whole entry): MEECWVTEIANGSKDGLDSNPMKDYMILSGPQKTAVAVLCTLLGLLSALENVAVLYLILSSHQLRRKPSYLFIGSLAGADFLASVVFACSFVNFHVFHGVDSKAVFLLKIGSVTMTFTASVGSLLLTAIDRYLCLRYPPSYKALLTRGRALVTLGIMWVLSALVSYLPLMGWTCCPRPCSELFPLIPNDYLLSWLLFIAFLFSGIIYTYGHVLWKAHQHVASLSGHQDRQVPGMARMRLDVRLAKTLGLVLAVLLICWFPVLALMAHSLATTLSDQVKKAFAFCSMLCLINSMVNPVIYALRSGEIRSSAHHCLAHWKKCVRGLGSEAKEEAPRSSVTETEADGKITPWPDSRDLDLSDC
MEASURED METRIC: pEC50
Keep it numeric: pEC50 is minus log10 of the concentration in mol/L.

Field pEC50 (endogenous CB2R (Homo sapiens)), entry Cn1nnnc1Cn1nnc2c(N3CC[C@H](O)C3)nc(C(C)(C)C)nc21 : 7.41

----------
experiment: Plasma PK profile in mice; format: in vivo, C57BL/6J mice; conditions: male, C57BL/6J, mouse, plasma, IV 1 mg/kg, read-out: Vss
MEASURED METRIC: Vd (L/kg)
Just the number please, in L/kg, no unit attached.

Input Cn1nnnc1Cn1nnc2c(N3CC[C@H](O)C3)nc(C(C)(C)C)nc21 [RG7774] . Output Vd: 3.7

----------
molecular target: endogenous CB2R in mouse spleen tissues (Mus musculus, UniProt P47936)
Sequence (P47936 whole entry): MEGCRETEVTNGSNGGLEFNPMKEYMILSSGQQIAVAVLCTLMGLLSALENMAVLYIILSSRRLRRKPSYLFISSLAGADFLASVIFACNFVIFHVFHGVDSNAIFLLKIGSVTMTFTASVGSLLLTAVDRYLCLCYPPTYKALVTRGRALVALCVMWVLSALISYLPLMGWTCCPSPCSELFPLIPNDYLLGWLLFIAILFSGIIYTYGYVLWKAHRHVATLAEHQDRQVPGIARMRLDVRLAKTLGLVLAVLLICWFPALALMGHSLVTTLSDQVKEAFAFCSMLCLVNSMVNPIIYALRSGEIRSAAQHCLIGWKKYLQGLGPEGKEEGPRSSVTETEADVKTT
MEASURED METRIC: pKi
Keep it numeric: pKi is minus log10 of the concentration in mol/L.

Input Cn1nnnc1Cn1nnc2c(N3CC[C@H](O)C3)nc(C(C)(C)C)nc21 . Output pKi: 7.40

----------
assay: Hepatocyte clearance; format: in vitro ADME; conditions: human, pooled cryopreserved human hepatocytes in suspension; read-out: Hepatocyte CL
MEASURED METRIC: hepatocyte CLint at 1 µM (µL/min/1e6 cells)
Just the number please, in µL/min/1e6 cells, no unit attached.

Input Cn1nnnc1Cn1nnc2c(N3CC[C@H](O)C3)nc(C(C)(C)C)nc21 [RG7774] . Output hepatocyte CLint at 1 µM: 1.7

----------
test: Plasma protein binding; format: in vitro ADME; details: C57, pooled plasma, pH 7.4, mouse, read-out: PPB (fu)
MEASURED METRIC: fraction unbound at 5 h, 1000 nM
Provide a numeric answer; units are not to be included.

Input Cn1nnnc1Cn1nnc2c(N3CC[C@H](O)C3)nc(C(C)(C)C)nc21 . Output fraction unbound at 5 h, 1000 nM: 0.045

----------
assay: Kinetic lyophilization solubility assay (LYSA); assay type: physicochemical; conditions: aqueous buffer, 0.05 M PBS pH 6.5
MEASURED METRIC: solubility kinetic (µg/mL)
Just the number please, in µg/mL, no unit attached.

Input Cn1nnnc1Cn1nnc2c(N3CC[C@H](O)C3)nc(C(C)(C)C)nc21 [RG7774] . Output solubility kinetic: 285

----------
Target: P-gp (Homo sapiens, UniProt P08183)
Construct: host or cells: LLC-PK1 (porcine kidney epithelial) cells
Sequence (P08183 whole entry): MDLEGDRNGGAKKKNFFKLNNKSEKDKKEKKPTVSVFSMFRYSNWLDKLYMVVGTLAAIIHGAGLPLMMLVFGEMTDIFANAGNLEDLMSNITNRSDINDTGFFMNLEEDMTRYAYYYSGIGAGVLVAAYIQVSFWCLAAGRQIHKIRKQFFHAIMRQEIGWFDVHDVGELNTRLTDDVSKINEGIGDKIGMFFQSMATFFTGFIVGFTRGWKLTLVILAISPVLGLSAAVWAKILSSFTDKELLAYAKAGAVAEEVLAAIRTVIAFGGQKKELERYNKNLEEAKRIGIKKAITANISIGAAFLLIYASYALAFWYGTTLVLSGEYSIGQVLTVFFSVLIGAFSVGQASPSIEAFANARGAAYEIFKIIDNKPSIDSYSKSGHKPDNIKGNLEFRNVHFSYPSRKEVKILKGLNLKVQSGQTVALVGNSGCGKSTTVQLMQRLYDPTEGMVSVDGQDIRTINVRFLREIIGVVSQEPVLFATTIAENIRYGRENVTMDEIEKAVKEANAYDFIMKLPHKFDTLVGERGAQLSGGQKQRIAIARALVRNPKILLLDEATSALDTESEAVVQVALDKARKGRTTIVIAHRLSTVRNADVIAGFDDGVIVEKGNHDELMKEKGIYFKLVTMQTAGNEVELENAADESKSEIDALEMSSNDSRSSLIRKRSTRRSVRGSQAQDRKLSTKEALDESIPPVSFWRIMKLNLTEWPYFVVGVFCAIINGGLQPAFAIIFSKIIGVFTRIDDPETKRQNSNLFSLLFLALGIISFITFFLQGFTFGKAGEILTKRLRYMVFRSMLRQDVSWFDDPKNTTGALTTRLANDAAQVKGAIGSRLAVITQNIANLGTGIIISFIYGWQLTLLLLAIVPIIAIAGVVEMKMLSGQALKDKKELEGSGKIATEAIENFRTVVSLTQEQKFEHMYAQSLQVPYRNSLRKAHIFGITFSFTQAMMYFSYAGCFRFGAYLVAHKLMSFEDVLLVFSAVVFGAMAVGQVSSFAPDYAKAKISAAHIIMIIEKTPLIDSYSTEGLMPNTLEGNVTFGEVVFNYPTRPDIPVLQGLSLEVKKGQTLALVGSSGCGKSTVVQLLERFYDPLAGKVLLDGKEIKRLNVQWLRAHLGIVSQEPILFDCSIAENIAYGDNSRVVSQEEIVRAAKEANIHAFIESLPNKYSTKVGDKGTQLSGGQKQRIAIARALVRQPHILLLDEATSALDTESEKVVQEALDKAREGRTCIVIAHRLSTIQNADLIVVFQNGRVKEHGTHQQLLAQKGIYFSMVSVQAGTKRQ
Assay: P-gp assay in transfected LLC-PK1 cells
Format: in vitro ADME
Description: The P-gp assay was conducted as previously described. Briefly, transfected porcine kidney epithelial (LLC-PK1) cells expressing human or mouse P-gp were cultured on 96-well semi-permeable filter membrane plates (Millipore, Darmstadt, Germany). […] The effect of P-gp was measured by expressing the efflux ratio of the unidirectional A > B and B > A Papp values. The mean permeability (A > B and B > A Papp) was determined in the absence of P-gp via the addition of the selective P-gp inhibitor, zosuquidar.
MEASURED METRIC: efflux ratio at 3 h

Input Cn1nnnc1Cn1nnc2c(N3CC[C@H](O)C3)nc(C(C)(C)C)nc21 . Output efflux ratio at 3 h: 2.5

----------
MEASURED METRIC: IC50

Field IC50 (hERG (Homo sapiens, UniProt Q12809)), entry Cn1nnnc1Cn1nnc2c(N3CC[C@H](O)C3)nc(C(C)(C)C)nc21 [RG7774] : > 20 µM

----------
assay: Microsomal clearance; type: in vitro ADME; details: human, pH 7.4
MEASURED METRIC: microsomal CLint at 1 µM (µL/min/mg)
Just the number please, in µL/min/mg, no unit attached.

Input Cn1nnnc1Cn1nnc2c(N3CC[C@H](O)C3)nc(C(C)(C)C)nc21 [RG7774] . Output microsomal CLint at 1 µM: 21.7

----------
assay: Plasma PK profile in mice; assay type: in vivo, C57BL/6J mice; conditions: male, C57BL/6J, mouse, plasma, IV 1 mg/kg
MEASURED METRIC: clearance
Please answer using the number first and the unit second.

Input Cn1nnnc1Cn1nnc2c(N3CC[C@H](O)C3)nc(C(C)(C)C)nc21 [RG7774] . Output clearance: 13.2 mL/min/kg
